molecular target: CD28 (Homo sapiens, UniProt P10747); experiment: Flow binding to Jurkat/IL2 reporter cells (CD28); parameters: host or cells: Jurkat cells expressing an IL-2-luciferase reporter; conditions: Table E4; MFI ratio to WT CD80 ECD-Fc (R&D) at 33.3 nM
parameter_measured: CD28 Fold change to WT CD80
Write the number on its own, no unit after it.

Would you mind telling me what CD28 Fold change to WT CD80 value was observed for E35D/M47I/L85Q/D90G (protein, UniProt P33681 35-288, looked up, variant E35D M47I L85Q D90G) T-lymphocyte activation …: VIHVTKEVKEVATLSCGHNVSVEELAQTRIYWQKDKKMVLTMMSGDINIWPEYKNRTIFDITNNLSIVILALRPSDEGTYECVVQKYEKGAFKREHLAEVTLSVKADFPTPSISDFEIPTSNIRRIICSTSGGFPEPHLSWLENGEELNAINTTVSQDPETELYAVSSKLDFNMTTNHSFMCLIKYGHLRVNQTFNWNTTKQEHFPDNLLPSWAITLISVNGIFVICCLTYCFAPRCRERRRNERLRRESVRPV ?
0.23

Data credit: patent US20220177587A1
